# MEASURED_TARGET: N-formyl peptide receptor 2 (Homo sapiens)
# PROTOCOL_DESCRIPTION: FPRL1 fluorescent ligand binding inhibitors, cell-based, flow cytometry, single concentration (AID 765)
# CONDITION_SUMMARY: FPRL1-expressing cells; at 5.1 µM unless noted
Active and inactive are the calls of the source. Cut-off read from the data, not from the text of the source: active = inhibition above about 31%; inactive = the rest.
Outcome codes: active, inactive

* CC(=O)N1CCN(c2nc(-c3ccccc3)c3cc(C)ccc3n2)CC1 | inactive
* Cc1ccc(-c2cn3cccnc3n2)cc1NC(=O)C(C)C | inactive
* COc1ccc(-c2cc(C(F)(F)F)nc(N3CCN(Cc4ccccc4)CC3)n2)cc1OC | active
* CC(N)C(=O)N1CCN(c2nc(-c3ccccc3)c3cc([N+](=O)[O-])ccc3n2)CC1 (stereo not given) | inactive
* COc1ccc(C2CC(=O)c3cnc(N4CCN(Cc5ccc6c(c5)OCO6)CC4)nc3C2)c(OC)c1 (stereo not given) | inactive
* COc1ccc(-c2cc(C#N)nc(N3CCN(c4ccccc4)CC3)n2)cc1 | inactive
* CCCC(=O)Nc1cc(-c2cn3cccnc3n2)ccc1OC | inactive
* Clc1cccc(-c2nc(N3CCN(Cc4ccccc4)CC3)nc3c2COc2ccccc2-3)c1 | inactive
* COc1ccc(-c2cn3cccnc3n2)cc1NC(=O)c1cc(C)cc(C)c1 | inactive
* Cc1ccc2nc(N3CCN(C(=O)CCC(=O)O)CC3)nc(-c3ccccc3)c2c1 | inactive

Values compiled from PubChem BioAssay AID765.
